A collection of compounds and their measured pIC50
Biological target: human GPR84 receptor (Homo sapiens, UniProt Q9NQS5)
Construct: frozen aliquots prepared by acCELLerate
Sequence (Q9NQS5 whole entry): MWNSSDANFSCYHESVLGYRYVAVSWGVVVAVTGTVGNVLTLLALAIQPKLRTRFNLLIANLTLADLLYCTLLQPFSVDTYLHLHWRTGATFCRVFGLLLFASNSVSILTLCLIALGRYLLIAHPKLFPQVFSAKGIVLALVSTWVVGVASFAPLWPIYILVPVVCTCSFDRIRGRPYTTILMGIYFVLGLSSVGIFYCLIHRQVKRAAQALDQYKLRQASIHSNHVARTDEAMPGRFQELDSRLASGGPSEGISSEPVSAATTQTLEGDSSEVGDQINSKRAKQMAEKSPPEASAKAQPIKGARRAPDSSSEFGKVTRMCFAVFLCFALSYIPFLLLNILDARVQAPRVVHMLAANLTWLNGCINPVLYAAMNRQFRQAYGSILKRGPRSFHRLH
Test: cAMP HTRF assay for identification of cellular GPR84 antagonists
Details: CHO-K1 cells stably expressing human GPR84; Forskolin + agonist 6-OAU (EC80); average or median values
pIC50 is a log-scale quantity: -log10 of the concentration expressed in molar.

{"compound": "C[C@@H]1Cc2oc(C(=O)NCc3ncco3)c(C(F)(F)F)c2-c2nn(C[C@H]3COCCO3)cc21 (single isomer, unassigned) [Example 256]", "experimental.readout": "pIC50", "reading": 7.85}
{"compound": "Cc1c(C(=O)NC[C@@H]2COCCO2)oc2c1-c1nn(C[C@H]3CCO3)cc1CC2 [Example 98]", "experimental.readout": "pIC50", "reading": 6.33}

Bench note: what pIC50 did Cc1c(C(=O)NC[C@@H]2CCCO2)oc2c1-c1nn(Cc3ccccn3)cc1C(C)C2 (mixture of isomers) [Example 247] show?
7.18

Bench note: what pIC50 did Cc1c(C(=O)NC[C@H]2CCC3(COC3)O2)oc2c1-c1nn(C[C@H]3COCCO3)cc1C1(CC1)C2 (single isomer, unassigned) [Example 201-2] show?
6.95

Bench note: what pIC50 did C[C@@H]1Cc2oc(C(=O)NCc3cncs3)c(C(F)(F)F)c2-c2nn(C[C@H]3COCCO3)cc21 (single isomer, unassigned) [Example 316] show?
6.43

Bench note: what pIC50 did Cc1c(C(=O)NC[C@@H]2CCCO2)oc2c1-c1nn(Cc3ccncc3)cc1C1(CCC1)C2 [Example 202] show?
7.11
